Target: TAAR5 (Mus musculus)
Construct: full-length native receptor in olfactory sensory neurons; glomeruli identified by response profile and from separate TAAR5-RFP imaging experiments
Sequence (Q5QD14 1-337): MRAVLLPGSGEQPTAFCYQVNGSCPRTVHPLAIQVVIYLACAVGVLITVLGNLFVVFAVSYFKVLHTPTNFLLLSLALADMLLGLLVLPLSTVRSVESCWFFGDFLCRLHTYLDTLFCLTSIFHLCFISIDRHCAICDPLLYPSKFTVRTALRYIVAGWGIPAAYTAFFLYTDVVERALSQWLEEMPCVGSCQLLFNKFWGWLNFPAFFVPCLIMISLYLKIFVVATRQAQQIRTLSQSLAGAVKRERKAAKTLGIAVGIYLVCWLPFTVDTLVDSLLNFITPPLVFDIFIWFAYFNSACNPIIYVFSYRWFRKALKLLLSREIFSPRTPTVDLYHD
Experiment: in vivo wide-field GCaMP3 calcium imaging of identified glomeruli, awake mice
Conditions: agonist; vapour-phase odorant concentration (flow dilution olfactometer), not aqueous; glomerular read-out
Measured Metric: pEC50
Just the number, please; pEC50 means minus log10 of the concentration in mol/L.

Query CN(C)C yields pEC50 of 7.51

* * *

Target: TAAR3 (Mus musculus)
Construct: full-length native receptor from endogenous locus in olfactory sensory neurons; allele TAAR3-IRES-tauVenus (TAAR3-YFP); receptor itself untagged
Assay: in vivo wide-field GCaMP3 calcium imaging of identified glomeruli, awake mice
Settings: agonist; vapour-phase odorant concentration (flow dilution olfactometer), not aqueous; glomerular read-out; printed CI does not contain the value
Measured Metric: EC50

I looked up NCCc1ccccc1 [phenylethylamine] and its EC50 for TAAR3 (Mus musculus) was 0.19 nM

* * *

Molecular target: TAAR3 (Mus musculus, UniProt Q5QD16)
Construct: full-length native receptor from endogenous locus in olfactory sensory neurons; allele TAAR3-IRES-tauVenus (TAAR3-YFP); receptor itself untagged
Sequence (Q5QD16 whole entry, the tested form may be a part): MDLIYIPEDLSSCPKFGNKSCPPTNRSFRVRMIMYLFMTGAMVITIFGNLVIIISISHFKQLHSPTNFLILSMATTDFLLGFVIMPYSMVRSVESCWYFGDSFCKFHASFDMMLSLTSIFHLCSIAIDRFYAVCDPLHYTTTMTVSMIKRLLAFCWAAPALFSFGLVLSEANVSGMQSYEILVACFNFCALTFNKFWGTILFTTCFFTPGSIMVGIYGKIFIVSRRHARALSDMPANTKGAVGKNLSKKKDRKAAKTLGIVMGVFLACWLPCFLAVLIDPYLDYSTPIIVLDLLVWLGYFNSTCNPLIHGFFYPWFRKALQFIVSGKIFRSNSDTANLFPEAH
Assay: in vivo wide-field GCaMP3 calcium imaging of identified glomeruli, awake mice
Conditions: agonist; vapour-phase odorant concentration (flow dilution olfactometer), not aqueous; glomerular read-out
So I've got a bunch of compounds here, and I need their EC50 values.
Answer in nM, number only, no unit symbol.

Known value: TAAR3 (Mus musculus, UniProt Q5QD16) EC50 of the compound CC(C)CCN equals 0.41

Form field EC50 for item CN(C)C on TAAR3 (Mus musculus, UniProt Q5QD16): 790
